Sourced from ChEMBL document CHEMBL4680197

Assayed target: ATP-dependent translocase ABCB1 (Homo sapiens)
Sequence (P08183 whole entry): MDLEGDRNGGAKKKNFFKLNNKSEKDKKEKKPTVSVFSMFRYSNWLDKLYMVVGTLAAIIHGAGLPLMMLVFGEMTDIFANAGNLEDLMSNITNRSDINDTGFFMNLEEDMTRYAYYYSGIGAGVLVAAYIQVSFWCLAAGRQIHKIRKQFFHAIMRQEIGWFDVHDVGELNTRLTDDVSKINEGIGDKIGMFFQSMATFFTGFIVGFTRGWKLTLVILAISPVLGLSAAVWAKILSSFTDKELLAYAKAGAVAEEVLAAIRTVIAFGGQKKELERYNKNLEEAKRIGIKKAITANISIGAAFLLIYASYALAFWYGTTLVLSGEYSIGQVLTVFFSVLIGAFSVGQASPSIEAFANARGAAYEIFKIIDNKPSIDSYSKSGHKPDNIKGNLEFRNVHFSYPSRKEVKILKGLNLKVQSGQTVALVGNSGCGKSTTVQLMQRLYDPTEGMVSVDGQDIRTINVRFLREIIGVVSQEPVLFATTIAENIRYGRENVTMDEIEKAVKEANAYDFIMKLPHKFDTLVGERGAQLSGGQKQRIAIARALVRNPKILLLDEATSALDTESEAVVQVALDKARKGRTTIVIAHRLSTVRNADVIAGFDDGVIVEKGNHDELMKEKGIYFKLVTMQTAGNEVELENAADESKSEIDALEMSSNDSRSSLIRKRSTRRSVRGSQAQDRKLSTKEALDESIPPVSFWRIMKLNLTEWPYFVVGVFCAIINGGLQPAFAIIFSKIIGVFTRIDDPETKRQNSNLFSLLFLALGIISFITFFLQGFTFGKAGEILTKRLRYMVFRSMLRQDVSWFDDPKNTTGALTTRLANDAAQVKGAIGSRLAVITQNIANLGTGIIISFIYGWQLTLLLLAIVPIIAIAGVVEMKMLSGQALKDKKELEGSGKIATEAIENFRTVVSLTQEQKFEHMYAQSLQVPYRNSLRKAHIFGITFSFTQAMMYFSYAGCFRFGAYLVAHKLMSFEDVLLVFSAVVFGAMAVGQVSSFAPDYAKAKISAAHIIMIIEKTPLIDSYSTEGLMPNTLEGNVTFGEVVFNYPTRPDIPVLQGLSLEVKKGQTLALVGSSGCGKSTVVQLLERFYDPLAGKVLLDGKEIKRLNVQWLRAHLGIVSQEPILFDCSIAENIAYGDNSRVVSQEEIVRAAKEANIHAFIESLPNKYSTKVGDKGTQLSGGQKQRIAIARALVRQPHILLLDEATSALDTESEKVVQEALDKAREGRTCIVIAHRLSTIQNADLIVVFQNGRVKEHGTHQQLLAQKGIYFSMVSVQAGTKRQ
Assay method text: Inhibition of P-gp in human U87-TxR cells assessed as increase in Rho123 accumulation at 2.5 uM measured after 72 hrs by flow cytometry
Type: cell-based
Reported endpoint: inhibition (INH)

Some solved cases for reference:
Cc1cccc(C(C(=O)NC(C)(C)C)N(C)CCOC(=O)/C=C/C(=O)c2ccc(F)cc2)c1 (configuration not stated)
Not Active
CN(CCOC(=O)/C=C/C(=O)c1ccc(F)cc1)C(C(=O)NC(C)(C)C)c1ccc(F)c(F)c1 (configuration not stated)
Not Active
CCN(CCOC(=O)/C=C/C(=O)c1ccc(F)cc1)C(C(=O)NC(C)(C)C)c1cccc(C)c1 (configuration not stated)
Not Active
CN(CCOC(=O)/C=C/C(=O)c1ccc(F)cc1)C(C(=O)NC(C)(C)C)c1ccccc1F (configuration not stated)
Not Active
Cc1ccc(C(=O)/C=C/C(=O)OCCN(C)C(C(=O)NC2CCCCC2)c2ccc(F)cc2)cc1 (configuration not stated)
Not Active

Attention now shifts to the item below.
Lab note: measured inhibition (INH) of Cc1ccc(C(C(=O)NC(C)(C)C)N(C)CCOC(=O)/C=C/C(=O)c2ccc(F)cc2)cc1 (configuration not stated) was Not Active

###

Assay method text: Selectivity index, ratio of IC50 for human MRC5 cells to IC50 for human U87-TxR cells
Assay type: toxicity
Experimental conditions: MRC5 cells versus U87-TxR cells, read-out: Ratio IC50
If the reported selectivity ratio equals or exceeds 2, assign met. If not, assign not met.

Cc1ccc(C(=O)/C=C/C(=O)OCCN(C)C(C(=O)NC2CCCCC2)c2ccc(F)cc2)cc1 (stereo not drawn)
not met
Cc1cccc(C(C(=O)NC(C)(C)C)N(C)CCOC(=O)/C=C/C(=O)c2ccc(F)cc2)c1 (stereo not drawn)
not met
CN(CCOC(=O)/C=C/C(=O)c1ccc(F)cc1)C(C(=O)NC(C)(C)C)c1ccc(F)c(F)c1 (stereo not drawn)
met
CN(CCOC(=O)/C=C/C(=O)c1ccc(F)cc1)C(C(=O)NC(C)(C)C)c1ccc(F)cc1 (stereo not drawn)
not met
Cc1ccc(C(C(=O)NC(C)(C)C)N(C)CCOC(=O)/C=C/C(=O)c2ccc(F)cc2)cc1 (stereo not drawn)
met

Quick check, selectivity ratio >= 2? Cc1cccc(C(C(=O)NC2CCCCC2)N(C)CCOC(=O)/C=C/C(=O)c2ccc(F)cc2)c1 (stereo not drawn)
not met

###

Assay method text: Selectivity index, ratio of IC50 for human MRC5 cells to IC50 for human U87 cells
Assay type: toxicity
Experimental conditions: MRC5 cells versus U87 cells, read-out: Ratio IC50
Below is a list of entries, each paired with its recorded selectivity ratio value.
Respond numerically, and do not add a unit to the figure.

Cc1ccc(C(C(=O)NC(C)(C)C)N(C)CCOC(=O)/C=C/C(=O)c2ccc(F)cc2)cc1 (stereo not drawn)
2.2

The compound identified as CCN(CCOC(=O)/C=C/C(=O)c1ccc(F)cc1)C(C(=O)NC(C)(C)C)c1cccc(C)c1 (stereo not drawn) registered its selectivity ratio at 2

For record Cc1cccc(C(C(=O)NC2CCCCC2)N(C)CCOC(=O)/C=C/C(=O)c2ccc(F)cc2)c1 (stereo not drawn) the listed selectivity ratio is 1.9

The recorded selectivity ratio for CN(CCOC(=O)/C=C/C(=O)c1ccc(F)cc1)C(C(=O)NC(C)(C)C)c1ccc(F)cc1 (stereo not drawn) is 1.4

Input CN(CCOC(=O)/C=C/C(=O)c1ccc(F)cc1)C(C(=O)NC(C)(C)C)c1ccc(F)c(F)c1 (stereo not drawn) . Output selectivity ratio: 2.4

The compound listed as Cc1cccc(C(C(=O)NC(C)(C)C)N(C)CCOC(=O)/C=C/C(=O)c2ccc(F)cc2)c1 (stereo not drawn) has a reported selectivity ratio of 1.6

Entry Cc1ccc(C(=O)/C=C/C(=O)OCCN(C)C(C(=O)NC2CCCCC2)c2ccc(F)cc2)cc1 (stereo not drawn) , selectivity ratio reported as 1.6

Entry CN(CCOC(=O)/C=C/C(=O)c1ccc(F)cc1)C(C(=O)NC(C)(C)C)c1ccccc1F (stereo not drawn) , selectivity ratio reported as 2
